# assay.explanation: Selectivity index, ratio of cytotoxicity against human BT549 cells to IC50 for Cryptococcus neoformans ATCC 90113
# Assay type: toxicity, cell-based
# condition.context: read-out: Selectivity Index
Residues, ends and D or L forms follow the SMILES beside them. *: point of attachment. Boc = CC(C)(C)OC(=O)*; NHBn = c1ccc(CN*)cc1
test.readout: selectivity ratio

COC(=O)[C@H](Cc1c[nH]c(-c2ccccc2)n1)NC(=O)[C@H](Cc1c[nH]c2ccccc12)NC(=O)[C@H](Cc1c[nH]c(-c2ccccc2)n1)NC(=O)OC(C)(C)C has a reported selectivity ratio of > 1.1

COC(=O)[C@H](Cc1c[nH]c(-c2ccc(-c3ccccc3)cc2)n1)NC(=O)[C@H](Cc1c[nH]c2ccccc12)NC(=O)[C@@H](N)Cc1c[nH]c(-c2ccc(-c3ccccc3)cc2)n1 has a reported selectivity ratio of > 28.6

COc1ccc(-c2nc(C[C@H](NC(=O)[C@H](Cc3c[nH]c4ccccc34)NC(=O)[C@@H](N)Cc3c[nH]c(-c4ccc(OC)cc4)n3)C(=O)NCc3ccccc3)c[nH]2)cc1 has a reported selectivity ratio of > 1.4

CC(C)(C)OC(=O)N[C@@H](Cc1cnc[nH]1)C(=O)N[C@@H](Cc1c[nH]c2ccccc12)C(=O)N[C@@H](Cc1cnc[nH]1)C(=O)NCc1ccccc1 (Boc-His-Trp-His-NHBn) has a reported selectivity ratio of > 12.5

CC(C)(C)OC(=O)N[C@@H](Cc1c[nH]c(-c2ccccc2)n1)C(=O)N[C@@H](Cc1c[nH]c2ccccc12)C(=O)N[C@@H](Cc1c[nH]c(-c2ccccc2)n1)C(=O)NCc1ccccc1 has a reported selectivity ratio of > 7.1

Cc1ccc(-c2nc(C[C@H](NC(=O)[C@H](Cc3c[nH]c4ccccc34)NC(=O)[C@@H](N)Cc3c[nH]c(-c4ccc(C)cc4)n3)C(=O)NCc3ccccc3)c[nH]2)cc1 has a reported selectivity ratio of > 1.8

---

# Tested on: Aspergillus
# assay.explanation: Antifungal activity against Aspergillus
# Format: functional
The source made the active and inactive calls. The rule behind the calls is not given here.
test.readout: Activity

[[record]]
cpd_smiles = "COC(=O)[C@H](Cc1c[nH]c(-c2ccccc2)n1)NC(=O)[C@H](Cc1c[nH]c2ccccc12)NC(=O)[C@@H](N)Cc1c[nH]c(-c2ccccc2)n1"
value_measured = "inactive"

[[record]]
cpd_smiles = "COC(=O)[C@H](Cc1c[nH]c(-c2ccc(C(C)(C)C)cc2)n1)NC(=O)[C@H](Cc1c[nH]c2ccccc12)NC(=O)[C@H](Cc1c[nH]c(-c2ccc(C(C)(C)C)cc2)n1)NC(=O)OC(C)(C)C"
value_measured = "inactive"

[[record]]
cpd_smiles = "Cc1ccc(-c2nc(C[C@H](NC(=O)OC(C)(C)C)C(=O)N[C@@H](Cc3c[nH]c4ccccc34)C(=O)N[C@@H](Cc3c[nH]c(-c4ccc(C)cc4)n3)C(=O)NCc3ccccc3)c[nH]2)cc1"
value_measured = "inactive"


---

# assay.explanation: Selectivity index, ratio of cytotoxicity against African green monkey VERO cells to IC50 for Cryptococcus neoformans ATCC 90113
# Type: toxicity, cell-based
# condition.context: read-out: Selectivity Index
Residues, ends and D or L forms follow the SMILES beside them. *: point of attachment. Boc = CC(C)(C)OC(=O)*; NHBn = c1ccc(CN*)cc1
Recorded selectivity ratio, one value per entry.

Below, 4 molecules whose answers are already recorded.
[[record]]
molecule = "COC(=O)[C@H](Cc1c[nH]cn1)NC(=O)[C@H](Cc1c[nH]c2ccccc12)NC(=O)[C@@H](N)Cc1c[nH]cn1 (H-His-Trp-His-OMe)"
test_readout = "selectivity ratio"
value_measured = "> 1"

[[record]]
molecule = "COc1ccc(-c2nc(C[C@H](NC(=O)[C@H](Cc3c[nH]c4ccccc34)NC(=O)[C@@H](N)Cc3c[nH]c(-c4ccc(OC)cc4)n3)C(=O)NCc3ccccc3)c[nH]2)cc1"
test_readout = "selectivity ratio"
value_measured = "> 1.4"

[[record]]
molecule = "Cc1ccc(-c2nc(C[C@H](NC(=O)[C@H](Cc3c[nH]c4ccccc34)NC(=O)[C@@H](N)Cc3c[nH]c(-c4ccc(C)cc4)n3)C(=O)NCc3ccccc3)c[nH]2)cc1"
test_readout = "selectivity ratio"
value_measured = "> 1.8"

[[record]]
molecule = "CC(C)(C)c1ccc(-c2nc(C[C@H](NC(=O)[C@H](Cc3c[nH]c4ccccc34)NC(=O)[C@@H](N)Cc3c[nH]c(-c4ccc(C(C)(C)C)cc4)n3)C(=O)NCc3ccccc3)c[nH]2)cc1"
test_readout = "selectivity ratio"
value_measured = "> 3.8"


// moving on: another record for selectivity ratio
CC(C)(C)OC(=O)N[C@@H](Cc1cnc[nH]1)C(=O)N[C@@H](Cc1c[nH]c2ccccc12)C(=O)N[C@@H](Cc1cnc[nH]1)C(=O)NCc1ccccc1 (Boc-His-Trp-His-NHBn) has a reported selectivity ratio of > 12.5
